Readings of viability, T/C for the listed compounds
# System: LG0703-F948-PDC complex spheroid viability
# protocol notes: Anticancer human tumor LG0703-F948-PDC patient-derived lung adenocarcinoma cell line growth inhibition [RAS]
# experimental parameters: compound 0.0316 µM; hits give low values

compound	viability, T/C
O=C(c1ccc(F)c(F)c1Nc1ccc(I)cc1F)N1CC(O)([C@@H]2CCCCN2)C1	57.7% [middle of 4 runs]
CC(Nc1ccc2c(c1)OCCn1cc(N3C(=O)OCC3C(F)F)nc1-2)C(N)=O (stereo not given)	96.2% [middle of 4 runs]
CCN1CCN(Cc2ccc(Nc3ncc(F)c(-c4cc(F)c5nc(C)n(C(C)C)c5c4)n3)nc2)CC1	84.7% [middle of 4 runs]
NC1c2ccccc2OC12CCN(c1cnc3c(N4CCCc5ncccc54)n[nH]c3n1)CC2 (stereo not given)	50.5% [middle of 4 runs]
Nc1ccn(C2OC(CO)C(O)C2(F)F)c(=O)n1 (stereo not given)	38.3% [middle of 4 runs]

----------
# System: LG0703-F948-PDC complex spheroid viability
# protocol notes: Anticancer human tumor LG0703-F948-PDC cell line growth inhibition [RAS];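 note: spheroids exposed to agents for 7 days; 100% = DMSO vehicle wells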
# experimental parameters: second compound 0.003 µM; first compound 0.1 µM; hits give low values
measurement type: viability, T/C (%)

molecule	tested system	measurement type	assay value
C=CC(=O)N1CCN(c2nc(OCC3CCCN3C)nc3c(F)c(-c4nc(N)cc(C)c4C(F)(F)F)c(Cl)cc23)C(C)C1 (stereo not given) + CCn1c(-c2cccnc2C(C)OC)c2c3cc(ccc31)N1CCOC(CC(NC(=O)C(C(C)C)N(C)C(=O)C3(F)CCN(C(=O)C#CC(C)(C)N(C)C)CC3)C(=O)N3CCCC(N3)C(=O)OCC(C)(C)C2)C1	LG0703-F948-PDC complex spheroid viability	viability, T/C	87.7
CCN1CCN(Cc2ccc(Nc3ncc(F)c(-c4cc(F)c5nc(C)n(C(C)C)c5c4)n3)nc2)CC1 + CCn1c(-c2cc(N3CCN(C)CC3)cnc2C(C)OC)c2c3cc(ccc31)-c1csc(n1)CC(NC(=O)C1CC1C)C(=O)N1CCCC(N1)C(=O)OCC(C)(C)C2	LG0703-F948-PDC complex spheroid viability	viability, T/C	53.2
CCN1CCN(Cc2ccc(Nc3ncc(F)c(-c4cc(F)c5nc(C)n(C(C)C)c5c4)n3)nc2)CC1 + CCn1c(-c2cccnc2C(C)OC)c2c3cc(ccc31)N1CCOC(CC(NC(=O)C(C(C)C)N(C)C(=O)C3(F)CCN(C(=O)C#CC(C)(C)N(C)C)CC3)C(=O)N3CCCC(N3)C(=O)OCC(C)(C)C2)C1	LG0703-F948-PDC complex spheroid viability	viability, T/C	104
O=C(c1ccc(F)c(F)c1Nc1ccc(I)cc1F)N1CC(O)([C@@H]2CCCCN2)C1 + CCn1c(-c2cccnc2C(C)OC)c2c3cc(ccc31)N1CCOC(CC(NC(=O)C(C(C)C)N(C)C(=O)C3(F)CCN(C(=O)C#CC(C)(C)N(C)C)CC3)C(=O)N3CCCC(N3)C(=O)OCC(C)(C)C2)C1	LG0703-F948-PDC complex spheroid viability	viability, T/C	40.7
CCC(CC)c1cc(NC2CCC(N)C2)n2nccc2n1 (stereo not given) + CCn1c(-c2cccnc2C(C)OC)c2c3cc(ccc31)N1CCOC(CC(NC(=O)C(C(C)C)N(C)C(=O)C3(F)CCN(C(=O)C#CC(C)(C)N(C)C)CC3)C(=O)N3CCCC(N3)C(=O)OCC(C)(C)C2)C1	LG0703-F948-PDC complex spheroid viability	viability, T/C	96.8
CC(Nc1ccc2c(c1)OCCn1cc(N3C(=O)OCC3C(F)F)nc1-2)C(N)=O (stereo not given) + CCn1c(-c2cccnc2C(C)OC)c2c3cc(ccc31)N1CCOC(CC(NC(=O)C(C(C)C)N(C)C(=O)C3(F)CCN(C(=O)C#CC(C)(C)N(C)C)CC3)C(=O)N3CCCC(N3)C(=O)OCC(C)(C)C2)C1	LG0703-F948-PDC complex spheroid viability	viability, T/C	86.6
CCC(CC)c1cc(NC2CCC(N)C2)n2nccc2n1 (stereo not given) + CCn1c(-c2cc(N3CCN(C)CC3)cnc2C(C)OC)c2c3cc(ccc31)-c1csc(n1)CC(NC(=O)C1CC1C)C(=O)N1CCCC(N1)C(=O)OCC(C)(C)C2	LG0703-F948-PDC complex spheroid viability	viability, T/C	40.2
C[C@@H](NC(=O)c1ncnc(N)c1Cl)c1ncc(C(=O)Nc2cc(C(F)(F)F)c(Cl)cn2)s1 + CCn1c(-c2cc(N3CCN(C)CC3)cnc2C(C)OC)c2c3cc(ccc31)-c1csc(n1)CC(NC(=O)C1CC1C)C(=O)N1CCCC(N1)C(=O)OCC(C)(C)C2	LG0703-F948-PDC complex spheroid viability	viability, T/C	46.9
C=CC(=O)N1CCN(c2nc(OCC3CCCN3C)nc3c(F)c(-c4nc(N)cc(C)c4C(F)(F)F)c(Cl)cc23)C(C)C1 (stereo not given) + CCn1c(-c2cc(N3CCN(C)CC3)cnc2C(C)OC)c2c3cc(ccc31)-c1csc(n1)CC(NC(=O)C1CC1C)C(=O)N1CCCC(N1)C(=O)OCC(C)(C)C2	LG0703-F948-PDC complex spheroid viability	viability, T/C	44
CC1(O)CCCC1n1c(=O)c(C(F)F)cc2cnc(NC3CCN(S(C)(=O)=O)CC3)nc21 (stereo not given) + CCn1c(-c2cccnc2C(C)OC)c2c3cc(ccc31)N1CCOC(CC(NC(=O)C(C(C)C)N(C)C(=O)C3(F)CCN(C(=O)C#CC(C)(C)N(C)C)CC3)C(=O)N3CCCC(N3)C(=O)OCC(C)(C)C2)C1	LG0703-F948-PDC complex spheroid viability	viability, T/C	90.7
Nc1ccn(C2OC(CO)C(O)C2(F)F)c(=O)n1 (stereo not given) + CCn1c(-c2cc(N3CCN(C)CC3)cnc2C(C)OC)c2c3cc(ccc31)-c1csc(n1)CC(NC(=O)C1CC1C)C(=O)N1CCCC(N1)C(=O)OCC(C)(C)C2	LG0703-F948-PDC complex spheroid viability	viability, T/C	28.7
CC(=O)OC12COC1CC(O)C1(C)C(=O)C(O)C3=C(C)C(OC(=O)C(O)C(NC(=O)OC(C)(C)C)c4ccccc4)CC(O)(C(OC(=O)c4ccccc4)C21)C3(C)C (stereo not given) + CCn1c(-c2cc(N3CCN(C)CC3)cnc2C(C)OC)c2c3cc(ccc31)-c1csc(n1)CC(NC(=O)C1CC1C)C(=O)N1CCCC(N1)C(=O)OCC(C)(C)C2	LG0703-F948-PDC complex spheroid viability	viability, T/C	17
CC(Nc1ccc2c(c1)OCCn1cc(N3C(=O)OCC3C(F)F)nc1-2)C(N)=O (stereo not given) + CCn1c(-c2cc(N3CCN(C)CC3)cnc2C(C)OC)c2c3cc(ccc31)-c1csc(n1)CC(NC(=O)C1CC1C)C(=O)N1CCCC(N1)C(=O)OCC(C)(C)C2	LG0703-F948-PDC complex spheroid viability	viability, T/C	31.1
NC1c2ccccc2OC12CCN(c1cnc3c(N4CCCc5ncccc54)n[nH]c3n1)CC2 (stereo not given) + CCn1c(-c2cc(N3CCN(C)CC3)cnc2C(C)OC)c2c3cc(ccc31)-c1csc(n1)CC(NC(=O)C1CC1C)C(=O)N1CCCC(N1)C(=O)OCC(C)(C)C2	LG0703-F948-PDC complex spheroid viability	viability, T/C	11.8
CC(C)n1nc(-c2ccc3oc(N)nc3c2)c2c(N)ncnc21 + CCn1c(-c2cccnc2C(C)OC)c2c3cc(ccc31)N1CCOC(CC(NC(=O)C(C(C)C)N(C)C(=O)C3(F)CCN(C(=O)C#CC(C)(C)N(C)C)CC3)C(=O)N3CCCC(N3)C(=O)OCC(C)(C)C2)C1	LG0703-F948-PDC complex spheroid viability	viability, T/C	17.9

----------
# System: LG0703-F948-PDC complex spheroid viability
# protocol notes: Anticancer human tumor LG0703-F948-PDC cell line growth inhibition [RAS];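 note: spheroids exposed to agents for 7 days; 100% = DMSO vehicle wells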
# experimental parameters: second compound 0.0949 µM; first compound 10 µM; hits give low values
Binary call on viability, T/C with cut-off 6%: strictly below means Met, and equality or higher means Not met.

molecule	tested system	qualitative label
CC(Nc1ccc2c(c1)OCCn1cc(N3C(=O)OCC3C(F)F)nc1-2)C(N)=O (stereo not drawn) + CCn1c(-c2cccnc2C(C)OC)c2c3cc(ccc31)N1CCOC(CC(NC(=O)C(C(C)C)N(C)C(=O)C3(F)CCN(C(=O)C#CC(C)(C)N(C)C)CC3)C(=O)N3CCCC(N3)C(=O)OCC(C)(C)C2)C1	LG0703-F948-PDC complex spheroid viability	Not met
Cc1nc(N2CCC3(CC2)COC(C)C3N)c(CO)nc1Sc1ccnc(N)c1Cl (stereo not drawn) + CCn1c(-c2cccnc2C(C)OC)c2c3cc(ccc31)N1CCOC(CC(NC(=O)C(C(C)C)N(C)C(=O)C3(F)CCN(C(=O)C#CC(C)(C)N(C)C)CC3)C(=O)N3CCCC(N3)C(=O)OCC(C)(C)C2)C1	LG0703-F948-PDC complex spheroid viability	Met
CCC(CC)c1cc(NC2CCC(N)C2)n2nccc2n1 (stereo not drawn) + CCn1c(-c2cccnc2C(C)OC)c2c3cc(ccc31)N1CCOC(CC(NC(=O)C(C(C)C)N(C)C(=O)C3(F)CCN(C(=O)C#CC(C)(C)N(C)C)CC3)C(=O)N3CCCC(N3)C(=O)OCC(C)(C)C2)C1	LG0703-F948-PDC complex spheroid viability	Met
CCC(CC)c1cc(NC2CCC(N)C2)n2nccc2n1 (stereo not drawn) + CCn1c(-c2cc(N3CCN(C)CC3)cnc2C(C)OC)c2c3cc(ccc31)-c1csc(n1)CC(NC(=O)C1CC1C)C(=O)N1CCCC(N1)C(=O)OCC(C)(C)C2	LG0703-F948-PDC complex spheroid viability	Met
Cc1nc(N2CCC3(CC2)COC(C)C3N)c(CO)nc1Sc1ccnc(N)c1Cl (stereo not drawn) + CCn1c(-c2cc(N3CCN(C)CC3)cnc2C(C)OC)c2c3cc(ccc31)-c1csc(n1)CC(NC(=O)C1CC1C)C(=O)N1CCCC(N1)C(=O)OCC(C)(C)C2	LG0703-F948-PDC complex spheroid viability	Met
CC(Nc1ccc2c(c1)OCCn1cc(N3C(=O)OCC3C(F)F)nc1-2)C(N)=O (stereo not drawn) + CCn1c(-c2cc(N3CCN(C)CC3)cnc2C(C)OC)c2c3cc(ccc31)-c1csc(n1)CC(NC(=O)C1CC1C)C(=O)N1CCCC(N1)C(=O)OCC(C)(C)C2	LG0703-F948-PDC complex spheroid viability	Met
CC(=O)OC12COC1CC(O)C1(C)C(=O)C(O)C3=C(C)C(OC(=O)C(O)C(NC(=O)OC(C)(C)C)c4ccccc4)CC(O)(C(OC(=O)c4ccccc4)C21)C3(C)C (stereo not drawn) + CCn1c(-c2cccnc2C(C)OC)c2c3cc(ccc31)N1CCOC(CC(NC(=O)C(C(C)C)N(C)C(=O)C3(F)CCN(C(=O)C#CC(C)(C)N(C)C)CC3)C(=O)N3CCCC(N3)C(=O)OCC(C)(C)C2)C1	LG0703-F948-PDC complex spheroid viability	Not met
CC1(O)CCCC1n1c(=O)c(C(F)F)cc2cnc(NC3CCN(S(C)(=O)=O)CC3)nc21 (stereo not drawn) + CCn1c(-c2cccnc2C(C)OC)c2c3cc(ccc31)N1CCOC(CC(NC(=O)C(C(C)C)N(C)C(=O)C3(F)CCN(C(=O)C#CC(C)(C)N(C)C)CC3)C(=O)N3CCCC(N3)C(=O)OCC(C)(C)C2)C1	LG0703-F948-PDC complex spheroid viability	Not met

Attribution: PubChem BioAssay AID2060890
